Where do the numbers come from? From PubChem BioAssay AID1159580.

protocol: chemical genetic growth profiling, strain panel (AID 1159580);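 note: tested at 20 µM; growth read once vehicle control cultures reached saturation at 30 °C; 1 = growth at the plate median or of vehicle wells; lower values mean less growth of the strain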
experimental.context: S. cerevisiae deletion strains, growth OD, locus YOR316C, strain cot1, hits give low values
Hit rate of the full screen: of about 5,500 compounds, about 2,000 (36%) were called active. Another 18% or so got no clear call; they are omitted. This is one part of the list.
Lab note: cut-off is 1. Strictly less in normalized growth is Condition met. Exactly 1 or more is Condition not met.

compound	category
COc1cc(O)cc(/C=C/c2ccccc2)c1	Condition met
C#C[C@]1(O)CCC2C3CCc4cc(O)ccc4C3CC[C@@]21C (stereo not given in full)	Condition not met
c1cc2c(cc1[C@H]1OC[C@H]3[C@@H]1CO[C@H]3c1ccc3c(c1)OCO3)OCO2	Condition met

Q: Quick check: normalized growth of COc1ccccc1N1CCNCC1 under 1?
A: Condition not met

---

Would you kindly list normalized growth for each of these molecules?
protocol: chemical genetic growth profiling, strain panel (AID 1159580);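 note: tested at 20 µM; growth read once vehicle control cultures reached saturation at 30 °C; 1 = growth at the plate median or of vehicle wells; lower values mean less growth of the strain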
experimental.context: S. cerevisiae deletion strains, growth OD, locus YLR258W, strain gsy2, hits give low values
Screen size: about 5,500 compounds; about 2,000 (36%) were called active. Inconclusive results (about 18%) are left out. Some of the results follow.
Give bare numbers.

                 molecule  measured_result
0  CCCc1cc(OC)c2c(c1)OCO2            0.998

Take each entry in turn and give its normalized growth.
1. c1ccc2[nH]c(-c3cscn3)nc2c1
2. CC1(C)CC2C1CCC1(C)OC1CCC2(C)O (stereo not given)

A:
1. 0.968
2. 1.05

Take each entry in turn and give its normalized growth.
1. CCCCC(CC)CN=C(N)NC(N)=NCCCCCCN=C(N)NC(N)=NCC(CC)CCCC (stereo not given)
2. COC(=O)[C@H]1[C@H]2C[C@@H]3c4[nH]c5cc(OC)ccc5c4CCN3C[C@H]2C[C@@H](OC(=O)c2cc(OC)c(OC)c(OC)c2)[C@@H]1OC

A:
[0.0577, 0.965]

---

protocol: chemical genetic growth profiling, strain panel (AID 1159580);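 note: tested at 20 µM; growth read once vehicle control cultures reached saturation at 30 °C; 1 = growth at the plate median or of vehicle wells; lower values mean less growth of the strain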
experimental.context: S. cerevisiae deletion strains, growth OD, locus YIR030C, strain dcg1, hits give low values
The whole screen tested about 5,500 compounds, of which about 2,000 (36%) were called active. Inconclusive results (about 18%) are left out. This is one part of the list.
measured.metric: normalized growth

                                   compound   measured_result
0  CC1(C)CC2C1CCC1(C)OC1CCC2(C)O (stereo unspecified)   1.01 (inactive)
1  CC[C@@H]1[C@@H](O)N2C3C[C@H]1C1C(O)[C@]4(C[C@@H]12)c1ccccc1N(C)[C@@H]34 (stereo partly specified)  0.984 (inactive)
2  C[C@@H]1C[C@@H]([C@H](O)CC2CC(=O)NC(=O)C2)C(=O)[C@@H](C)C1   0.0576 (active)

Take each entry in turn and give its normalized growth.
1. CN(Cc1cc(Br)cc(Br)c1N)C1CCCCC1
2. CCOc1ccc2c(c1)C(C)=CC(C)(C)N2
3. CC1(C)CC2C1CCC1(C)OC2(C)CCC1O (stereo unspecified)

A:
["1.02 (inactive)", "0.981 (inactive)", "1 (inactive)"]

---

protocol: chemical genetic growth profiling, strain panel (AID 1159580);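 note: tested at 20 µM; growth read once vehicle control cultures reached saturation at 30 °C; 1 = growth at the plate median or of vehicle wells; lower values mean less growth of the strain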
experimental.context: S. cerevisiae deletion strains, growth OD, locus YOR001W, strain rrp6, hits give low values
Hit rate of the full screen: of about 5,500 compounds, about 2,000 (36%) were called active. About 18% were inconclusive and are not listed. The list shows a part of the results.
measured.metric: normalized growth
Give bare numbers.

Please review the entries below; each comes with its answer.
>>> df
                                        smi    measured_metric  measured_result
0                Cc1ccc(C(C)C)cc2c(C)ccc1-2  normalized growth             1.04
1  COc1ccc(-c2cc(C(F)F)nn2-c2ccc(S(N)(=O)=O)cc2)cc1F  normalized growth             1.01
2  O=C1CN(/N=C\c2ccc([N+](=O)[O-])o2)C(=O)N1  normalized growth            0.977

Take each entry in turn and give its normalized growth.
1. NC(=O)N/N=C\c1ccc([N+](=O)[O-])o1
2. CCOC(N)=O
3. COP(=S)(OC)Oc1ccc(SC)c(C)c1
4. NCc1ccc(S(N)(=O)=O)cc1

A:
1. 1.01
2. 0.994
3. 0.99
4. 0.972
